System: L1210 leukemia ip in BDF1 mice, survival T/C
Experiment: NCI In Vivo Anticancer Drug Screen. Data for tumor model L1210 Leukemia (intraperitoneal) in B6D2F1 (BDF1) mice
Conditions: endpoint: mean survival time; dose: 150.0 mg/kg/injection; schedule: Q01DX001 (ip); vehicle: saline; higher = longer survival
Toxic doses and inconclusive results are not listed.
Measured endpoint: T/C

* CC(=O)Nc1ccnc(=O)[nH]1 | 95 % of control
* CCOC(=N)c1ccc(P(=O)(O)O)cc1 | 96 % of control
* O=C(O)c1n[nH]nc1[N+](=O)[O-] | 105 % of control
* CCOC1(OCC)C(C)C(c2ccccc2)C(c2ccccc2)C1C (configuration not stated) | 90 % of control

Name the reported T/C value associated with the compound CSC(CC(=O)O)C(=O)O (configuration not stated)
108 % of control

Also "O=[N+]([O-])c1ccc([As](=O)(O)c2ccc([N+](=O)[O-])cc2)cc1" , if possible.
100 % of control

Also "O=C(O)c1ccc([N+](=O)[O-])c(P(=O)(O)O)c1" , if possible.
109 % of control
